# credit: PubChem BioAssay AID2305

// IC50 lookup, one value per entry
System: P. falciparum 3D7 growth, pLDH absorbance
EXPERIMENT: blood-stage malaria parasite growth potency – strain 3D7, dose response (AID 2305)
PARAMETER_MEASURED: IC50 (nM)

compound=COc1ccc(O)c(C(=O)c2cc(C(=O)NCCc3ccccc3)c(=O)n(CCc3ccccc3)c2)c1 units_label=nM value_measured=1010
compound=CN(C)CCOc1cc(NC(=O)/C=C/c2cccc3ccccc23)ccc1I units_label=nM value_measured=1260
compound=CCCCCCCN1CC[C@@H](CCCc2ccnc3ccc(OCCN4CCOCC4)cc23)[C@@H](CC)C1 units_label=nM value_measured=910
compound=Cc1ccc2nc(C)cc(NN=Cc3cccc(Cl)c3)c2c1 units_label=nM value_measured=740
compound="Cc1ccc(C(C#N)c2ccc3c(C(F)(F)F)cc(C(F)(F)F)nc3n2)cc1 (stereo unspecified)" units_label=nM value_measured=700
compound=COc1ccccc1CCN1CCC(CN(C)Cc2ccc(O)c(Cl)c2)CC1 units_label=nM value_measured=330
compound=CC(C)C1=C[C@H]2C[C@]3(C4OCCO4)[C@@H]4CC[C@@H](C)[C@H]4C[C@@]2(COCc2cccc(C#N)c2)[C@]13C(=O)OC(c1ccccc1)c1ccccc1 units_label=nM value_measured=1790
compound=CN(CC(=O)Nc1ccc(F)cc1)C(=O)c1ccc(-c2ccc(F)cc2)o1 units_label=nM value_measured=930
compound=COc1cc(N(Cc2ccc(F)cc2)C(=O)c2ccc(-c3ccccc3)cc2)ccc1OCCN1CCCC1 units_label=nM value_measured=830
compound=COc1ccc2nccc([C@@H](O)CN3CCC(NC[C@H](Cc4ccccc4)NC(=O)OC(C)(C)C)CC3)c2c1 units_label=nM value_measured=230
compound="CC(Cc1ccc(OCCOc2ccccc2)cc1)NCC(O)c1cccc(C(F)(F)F)c1 (stereo unspecified)" units_label=nM value_measured=970

###

Test system: P. falciparum 3D7 growth, pLDH absorbance
EXPERIMENT: blood-stage malaria parasite growth potency – strain 3D7, dose response (AID 2305)
pIC50: −log10 of the molar value.
// pIC50 lookup, one value per entry
PARAMETER_MEASURED: pIC50

compound=Cc1[nH]c(C)c([N+](=O)[O-])c(=O)c1-c1ccc(Oc2ccccc2)cc1 parameter_measured=pIC50 value_measured=6.57
compound=O=C(NCCCCN1CCC(c2c[nH]c3ccccc23)CC1)c1sc(-c2ccc(C(F)(F)F)cc2)nc1CO parameter_measured=pIC50 value_measured=5.92
compound=COc1ccc2nc(NC3=NC(c4ccccn4)(c4ccccn4)C(=O)N3C)[nH]c2c1 parameter_measured=pIC50 value_measured=6.23
compound="CN(C)c1ccc(C2c3nc[nH]c3CCN2C(=O)Nc2cccc([N+](=O)[O-])c2)cc1 (centres undefined)" parameter_measured=pIC50 value_measured=6.01
compound=CC(C)Nc1cc(C(=O)N[C@@H](Cc2ccccc2)[C@H](O)CNCc2cccc(C(F)(F)F)c2)c(F)c(N2CCCCS2(=O)=O)c1 parameter_measured=pIC50 value_measured=6.10
compound=COc1ccc2nccc(N3CCC(CCNCc4ccc5c(n4)NC(=O)CO5)CC3)c2n1 parameter_measured=pIC50 value_measured=6.00
compound=CC(C)CNCc1cccc(-c2cccc(CN(CCCN3CCN(C)CC3)C(=O)NC3CCCCC3)c2)c1 parameter_measured=pIC50 value_measured=6.12
compound=Fc1ccc2nc(-c3cccc(-c4cccc(CN5CCN(c6cnccn6)CC5)c4)c3)[nH]c2c1 parameter_measured=pIC50 value_measured=5.97
compound=Cc1ccc2c(NN=Cc3cccc(Cl)c3)cc(C)nc2c1 parameter_measured=pIC50 value_measured=6.02

###

// IC50 lookup, one value per entry
Tested on: P. falciparum 3D7 growth, pLDH absorbance
EXPERIMENT: blood-stage malaria parasite growth potency – strain 3D7, dose response (AID 2305)
PARAMETER_MEASURED: IC50 (nM)

compound="O=C(Nc1ccc(Cl)c(Cl)c1)C1CCC(=O)N1[C@@H](Cc1ccccc1)C(=O)NCCc1ccc(Cl)cc1 (some centres undefined)" parameter_measured=IC50 units_label=nM value_measured=1100
compound=COCCCn1c(=N)c(C(=O)NCCc2ccc(OC)cc2)cc2c(=O)n3cccc(C)c3nc21 parameter_measured=IC50 units_label=nM value_measured=1030
compound="O=C(c1ccc(Br)o1)N1N=C(c2cccs2)CC1c1ccc(Br)cc1 (centres undefined)" parameter_measured=IC50 units_label=nM value_measured=510
compound="O=C(Nc1cccc(C(F)(F)F)c1)c1cccc(S(=O)(=O)NCC2CCCN2CC2CCCCC2)c1 (centres undefined)" parameter_measured=IC50 units_label=nM value_measured=1110
compound=COc1cccc(Nc2nccc(-c3c(-c4cccc(NC(=O)c5c(F)cccc5F)c4)nn4ccccc34)n2)c1 parameter_measured=IC50 units_label=nM value_measured=180
compound=CC(C)CN(c1nc(C(=O)NNC(=O)[C@H](CC2CC2)NC(=O)c2cc3cc(OCCN(C)C)ccc3o2)cs1)C1CC1 parameter_measured=IC50 units_label=nM value_measured=1030
compound="Cn1cc(CN2CCCC(COC(c3ccc(F)cc3)c3ccc(F)cc3)C2)cn1 (centres undefined)" parameter_measured=IC50 units_label=nM value_measured=570
compound=O=C(NCc1ccc(Cl)cc1)c1ccc(CN2CCCN(Cc3cccc(O)c3)CC2)cc1 parameter_measured=IC50 units_label=nM value_measured=1170
compound=COc1ccc2nccc(NC(=O)CNCc3ccc(-c4ccccc4)cc3)c2c1 parameter_measured=IC50 units_label=nM value_measured=770

###

Tested on: P. falciparum 3D7 growth, pLDH absorbance
EXPERIMENT: blood-stage malaria parasite growth potency – strain 3D7, dose response (AID 2305)
Labels assigned by IC50 range: lo (below 500 nM), med (500 nM to below 900 nM), hi (900 nM or more)

compound=COc1ccc(-c2cccc(NC(=O)c3cccc(Cl)c3)c2)cc1CNC(C)C target_or_system="P. falciparum 3D7 growth, pLDH absorbance" category_label=med
compound="CCC1(C)N=C(N)N=C(N)N1c1ccc(Cl)cc1 (stereo unspecified)" target_or_system="P. falciparum 3D7 growth, pLDH absorbance" category_label=lo
compound=CCOc1ccccc1C1CCN(CCCCNC(=O)c2ccc(NC(=O)c3ccc(Cl)cc3)cc2)CC1 target_or_system="P. falciparum 3D7 growth, pLDH absorbance" category_label=med
compound=S=C(NCCc1ccccc1)Nc1ccc2ncsc2c1 target_or_system="P. falciparum 3D7 growth, pLDH absorbance" category_label=hi
compound=FC(F)(F)c1ccc(/C=C/c2cncnc2Nc2ccc3nc(Cc4ccccc4)[nH]c3c2)cc1 target_or_system="P. falciparum 3D7 growth, pLDH absorbance" category_label=med
compound=CS(=O)(=O)CCNCc1cc(-c2cc3ncnc(Nc4ccc(OCc5cccc(F)c5)c(Cl)c4)c3s2)cs1 target_or_system="P. falciparum 3D7 growth, pLDH absorbance" category_label=lo
compound=FC(F)(F)c1ccc2nccc(NN=Cc3cccnc3)c2c1 target_or_system="P. falciparum 3D7 growth, pLDH absorbance" category_label=med
compound=O=C(Nc1cc(C(F)(F)F)ccc1Cl)c1ccc(Cn2cc(Br)cn2)cc1 target_or_system="P. falciparum 3D7 growth, pLDH absorbance" category_label=hi
compound=Cc1c(CNCCN2CCCCC2)c(C(=O)O)c(C)n1Cc1ccc(Cl)cc1 target_or_system="P. falciparum 3D7 growth, pLDH absorbance" category_label=lo
compound=CCN(CC)CCN(Cc1ccc(-c2ccc(C(F)(F)F)cc2)cc1)C(=O)Cn1cc(Cc2cnn(C)c2)c(=O)nc1/C=C/c1cccc(F)c1F target_or_system="P. falciparum 3D7 growth, pLDH absorbance" category_label=hi
compound=CC(C)C[C@@H](/C=N/N1CC(=O)NC1=O)NC(=O)[C@H](CC(C)C)NC(=O)c1ccc(OCCN2CCOCC2)cc1 target_or_system="P. falciparum 3D7 growth, pLDH absorbance" category_label=lo
compound=CN1CCC=C(C(=O)NCC(C)(C)c2nc(-c3ccc(Cl)c(O)c3)c(-c3ccncc3)[nH]2)C1 target_or_system="P. falciparum 3D7 growth, pLDH absorbance" category_label=hi
compound=CCCOc1ccc(C(=O)Nc2nonc2-c2ccc(OC)c(OC)c2)cc1 target_or_system="P. falciparum 3D7 growth, pLDH absorbance" category_label=hi
compound=CNCCNCc1ccc(-c2ccc(-c3nc4ccc(F)cc4[nH]3)s2)cc1 target_or_system="P. falciparum 3D7 growth, pLDH absorbance" category_label=med
compound=Cc1ccc(-c2ccc(Cl)cc2Oc2cnc(N)nc2N)o1 target_or_system="P. falciparum 3D7 growth, pLDH absorbance" category_label=hi
compound=COc1ccc(S(=O)(=O)Nc2cc(Br)cc3c2OCCC3)cc1N1CCN(C(=O)C(Cl)(Cl)Cl)CC1 target_or_system="P. falciparum 3D7 growth, pLDH absorbance" category_label=med
compound=Nc1nc(N)c2c(Oc3cccc(Cl)c3)cccc2n1 target_or_system="P. falciparum 3D7 growth, pLDH absorbance" category_label=lo
compound=N#Cc1ccc(-c2ccc(C(=O)NC3CCN(CCN4CCC(c5cn(CCO)c6ccccc56)CC4)CC3)cc2)cc1 target_or_system="P. falciparum 3D7 growth, pLDH absorbance" category_label=med
compound=Cc1[nH]c(C)c(-c2ccc(CCc3ccc(F)cc3F)cc2)c(=O)c1Cl target_or_system="P. falciparum 3D7 growth, pLDH absorbance" category_label=lo
